- Experiment notes: Cell Viability - LYMP2-001 (AID 921);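 also: cells exposed to compound for 24 h at 37 °C; nearly all actives have a fitted effect of over 70% in size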
- Condition notes: LYMP2-001 lymphoblastoid cell viability; series mostly up to 92.2 µM
Results filed as inconclusive are left out. Activity calls are given as the source filed them. Calls follow the shape of the dose curve; as a rule, active = well fitted cell-killing curve with a large enough effect; inconclusive = small, poorly fitted or top-dose-only effect; inactive = no such curve, though single readings can be large or run the other way.
Tick one outcome: true (active), false (inactive)

Use these answered entries as a reference point.
>  <Compound>
OCCOc1ccccc1

>  <Group label>
false

$$$$
>  <Compound>
N[C@@H](Cc1ccc(N(CCCl)CCCl)cc1)C(=O)O

>  <Group label>
true

$$$$
>  <Compound>
Oc1ccc(Cl)cc1Cc1ccccc1

>  <Group label>
false

$$$$

Query: For Oc1ccccc1-c1ccccc1 , which call appears in the assay record?
Reply: false

Query: GET /call?item= CCOP(=S)(OCC)Oc1cc(C)nc(C(C)C)n1 returns the recorded outcome of this test.
Reply: false

Query: For NCC(O)c1ccc(O)cc1 (stereo unspecified) , what call appears in the results of this test?
Reply: false

Values were extracted from PubChem BioAssay (NCATS).
